System: MDA-MB-231 breast cancer cell
test.summary: MTT cell viability assay, MDA-MB-231 breast cancer cell
Type: cell-based, human
condition: Homo sapiens, MDA-MB-231, 48 h, MDA-MB-231, treated 48 hours; read-out: IC50 48 hours
measured.quantity: IC50 (µM)
Give bare numbers, in µM.

Past entries and their recorded results:
• CC(CO)(CO)C(=O)Oc1ccc(/C=C/C(=O)/C=C(O)/C=C/c2ccc(O)cc2)cc1 [Compound 23b] = 5.27
• COc1cc(/C=C/C(=O)CC(=O)/C=C/c2ccc(OC(=O)C(CO)(CO)COC(=O)C(CO)(CO)CO)c(OC)c2)ccc1O [Compound 38b] = 64.8
• CC(CO)(CO)C(=O)Oc1ccc(/C=C/C(=O)CC(=O)/C=C/c2ccc(OC(=O)C(C)(CO)CO)c(OC(F)(F)F)c2)cc1OC(F)(F)F = 8.6
• CCC(CO)(CO)C(=O)Oc1ccc(/C=C/C(=O)CC(=O)/C=C/c2ccc(OC(=O)C(CC)(CO)CO)c(OC(F)(F)F)c2)cc1OC(F)(F)F = 7.79
• CCOc1cc(/C=C/C(=O)/C=C(O)/C=C/c2ccc(OC(=O)C(C)(CO)CO)c(OCC)c2)ccc1OC(=O)C(C)(CO)CO = 8.85

Next compound, IC50 to be filled in.
Indicate its recorded IC50; the compound in question is CC(CO)(CO)C(=O)Oc1ccc(/C=C/C(=O)C(C)(C)C(=O)/C=C/c2ccc(OC(=O)C(C)(CO)CO)cc2)cc1 3.13
